The reader will find reported TGI values listed item by item below.
- Tested on: MDA-MB-435
- assay-info: NCI tumour cell line growth inhibition, 48 h
quantity-kind: TGI

- compound: "COP(=O)(Cc1ccc(/C=C/C#N)o1)OC"
  quantity-kind: "TGI"
  observed: "> 100 µM"
- compound: "CC(C)(C)OC(=O)NCC(=O)NC1c2ccsc2/C(=N/O)[C@H]1O (some centres undefined)"
  quantity-kind: "TGI"
  observed: "> 100 µM"
- compound: "O=[N+]([O-])c1ccccc1N=Nc1c(O)[nH]c2ccc(Br)cc12"
  quantity-kind: "TGI"
  observed: "> 94.4 µM"
- compound: "CC(C)CC[C@H](O)[C@@H](C)[C@H]1[C@@H](OC2OC(C)C(O)C(O)C2O)C[C@H]2[C@@H]3CC=C4C[C@@H](O)CC[C@]4(C)[C@H]3[C@@H](O)C[C@]12C (some centres undefined)"
  quantity-kind: "TGI"
  observed: "> 100 µM"
